A collection of compounds and their measured inhibition of growth at 10 µM
# Tested on: OVCAR-4
# measurementDescription: Antiproliferative activity against human OVCAR-4 cells assessed as cell growth inhibition at 10 uM incubated for 24 hrs by sulforhodamine B assay
# Assay type: functional
# statedConditions: read-out: GI
assayReadout: inhibition of growth at 10 µM (%)

molecularString | target | assayReadout | observedMeasurement
NS(=O)(=O)c1ccc(Nc2cc(-c3ccccc3)nc(SCC(=O)c3ccc(Br)cc3)n2)cc1 | OVCAR-4 | inhibition of growth at 10 µM | 7.69
COc1ccc(C(=O)CSc2nc(Nc3cccc(S(N)(=O)=O)c3)c(C#N)c(-c3cc(OC)ccc3OC)n2)cc1 | OVCAR-4 | inhibition of growth at 10 µM | 7.16
COc1ccc(C(=O)CSc2nc(Nc3cccc(S(N)(=O)=O)c3)cc(-c3ccccc3)n2)cc1 | OVCAR-4 | inhibition of growth at 10 µM | 12.2
COc1ccc(OC)c(-c2nc(SCC(=O)c3ccc(Br)cc3)nc(Nc3cccc(S(N)(=O)=O)c3)c2C#N)c1 | OVCAR-4 | inhibition of growth at 10 µM | 24.1
CC(C)c1nc(SCC(=O)c2ccccc2)nc(Nc2cccc(S(N)(=O)=O)c2)c1C#N | OVCAR-4 | inhibition of growth at 10 µM | 9.85
Cc1ccc(-c2nc(SCC(=O)c3ccccc3)nc(Nc3ccc(S(N)(=O)=O)cc3)c2C#N)cc1 | OVCAR-4 | inhibition of growth at 10 µM | 75.7
CC(C)c1nc(SCC(=O)c2ccc(Br)cc2)nc(Nc2ccc(S(N)(=O)=O)cc2)c1C#N | OVCAR-4 | inhibition of growth at 10 µM | 6.52
COc1ccc(OC)c(-c2nc(SCC(=O)c3ccccc3)nc(Nc3ccc(S(N)(=O)=O)cc3)c2C#N)c1 | OVCAR-4 | inhibition of growth at 10 µM | 14.9
COc1ccc(OC)c(-c2nc(SCC(=O)c3ccc(Br)cc3)nc(Nc3ccc(S(N)(=O)=O)cc3)c2C#N)c1 | OVCAR-4 | inhibition of growth at 10 µM | 42.6
